Target: Pancreatic CCK Receptor (Rattus norvegicus)
Sequence (P30551 1-444): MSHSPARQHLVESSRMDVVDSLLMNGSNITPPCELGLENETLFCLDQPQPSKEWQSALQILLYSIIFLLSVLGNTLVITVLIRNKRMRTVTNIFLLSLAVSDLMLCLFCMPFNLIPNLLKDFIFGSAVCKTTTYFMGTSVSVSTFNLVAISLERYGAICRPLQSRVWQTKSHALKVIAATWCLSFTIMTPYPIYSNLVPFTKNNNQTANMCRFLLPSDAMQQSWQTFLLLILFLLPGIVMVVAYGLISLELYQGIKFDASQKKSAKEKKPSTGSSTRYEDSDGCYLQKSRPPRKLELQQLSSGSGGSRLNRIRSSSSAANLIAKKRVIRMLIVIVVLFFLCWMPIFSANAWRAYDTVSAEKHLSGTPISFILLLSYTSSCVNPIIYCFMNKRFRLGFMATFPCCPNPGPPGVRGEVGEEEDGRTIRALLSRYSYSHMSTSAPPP
measurement name: IC50 (nM)

{"columns": ["compound", "unit text", "reported result"],
 "data": [
  ["O=C(O)CN(CCc1ccccc1)C(=O)C(Cc1c[nH]c2ccccc12)NC(=O)c1ccc2ccccc2n1 (stereo not shown)", "nM", 170]
]}

Cited source: patent US5010089A
